Tested on: Saccharomyces cerevisiae;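 note: PSI is a weighted mean of sequencing reads over stability bins, variants kept only with over 10 reads, mCherry proximal and sfGFP distal, peptide attached via GGGS linker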
Assay: protein stability index of tFT-peptide fusion (C-terminal peptide) (PSI (0-1 scale)); higher = more stable (slower turnover)
Conditions: genetic background: wild type; temperature: 30 C
READOUT: protein stability index
Respond using a number only.

Please review the entries below; each comes with its answer.
VGAGGSLPLNKV: 0.693
KKRRNRIKKSAK: 0.689
AERCVLEKSPRL: 0.743
GTSPGREFYWHK: 0.702

Query: // lookup protein stability index for `THYKLFGSLNLL`
Reply: 0.634

Query: Query `PPALRSPCPSHP` next
Reply: 0.747

Query: What do we get for `SLLVSRVVFRGN` ?
Reply: 0.769

Query: Same question, `EDILWADVPYSK` this time
Reply: 0.759

Query: Request: `LSPLTPAPLPPP`
Reply: 0.667

Query: Please give the result for `ALLTPPPLPPTV` too.
Reply: 0.61

Query: Same for `SRQPPPRVFCVV`
Reply: 0.571

Values compiled from the supplement of paper PMC10724198.
